# subject-of-test: SIX1-Q177R homeodomain (human, UniProt Q15475 108-198, Q177R)
# Sequence: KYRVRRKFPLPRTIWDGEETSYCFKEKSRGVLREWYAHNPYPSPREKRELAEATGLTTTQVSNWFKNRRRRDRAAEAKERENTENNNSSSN
# protocol-details: universal protein binding microarray; Universal all-10-mer PBM (8x60K, AMADID 030236), 300 nM GST-tagged protein, Alexa Fluor 488 anti-GST; buffer, salt, pH and temperature not stated (as in Berger); high values mean tight binding
# recorded-conditions: protein: ivt; tags: N-terminal GST; dsDNA, one strand shown
The full ranking holds about 33,000 sequences; the median of “e-score” is about -0.05, and the highest 2% start at about 0.38. The full list was thinned out, with the highest values kept by preference.
# Lookup of reported binding signal keyed by entry
Write the figure, then the unit, nothing else.

In the examples that follow, each entry is paired with its recorded binding signal.
query: Which binding signal value belongs to CACCAGGG ?
result: 0.284 E-score

query: Which binding signal value belongs to ACCCCGGG ?
result: 0.302 E-score

query: Which binding signal value belongs to GCGAACCC ?
result: 0.174 E-score

query: Which binding signal value belongs to ATCCCGGG ?
result: 0.209 E-score

query: Which binding signal value belongs to AGTTAGGA ?
result: 0.153 E-score

More entries:
query: Which binding signal value belongs to CCGAACAC ?
result: 0.424 E-score

query: Which binding signal value belongs to CACCTAGA ?
result: 0.276 E-score

query: Which binding signal value belongs to AGGTATAA ?
result: 0.17 E-score

query: Which binding signal value belongs to GATCCCCA ?
result: 0.267 E-score

query: Which binding signal value belongs to ACCCCCGT ?
result: 0.273 E-score

query: Which binding signal value belongs to ACAAGGGG ?
result: 0.185 E-score

query: Which binding signal value belongs to GATCAACA ?
result: 0.206 E-score
